MIC values for the compounds below.
# Test system: S. cerevisiae ATCC 9763
# method.description: antifungal activity (disc-diffusion, MIC, MFC)
# Type: cell-based
# condition: Saccharomyces cerevisiae, ATCC9763; fluconazole by Etest
Numeric only. Scale: µg/mL

Consider the following illustrative entries.
OB(O)c1ccc(B(O)O)cc1 | 400
OB(O)c1cc(Br)c(B(O)O)cc1Br | 50
OC(Cn1cncn1)(Cn1cncn1)c1ccc(F)cc1F [Fl, fluconazole, reference compound] | 16
OB(O)c1cc(F)ccc1F | 50
OB(O)c1cc(F)c(B(O)O)cc1F | 400
OB(O)c1ccc(B(O)O)c(F)c1 | 25
O=Cc1cc(F)ccc1B(O)O | 6.25

Q: Can you look up the measured MIC of OB(O)c1ccc(F)cc1B(O)O for me?
A: 100
